SF-268 GI50 data
Provide the reading as a plain figure in µM.

COc1cc(C(=O)/C=C/c2c(-c3ccc(F)cc3)nc3sccn23)cc(OC)c1OC [Compound 7e]; 2.52
COc1ccc(C(=O)/C=C/c2c(C(F)(F)F)nc3sccn23)cc1OC [Compound 8f]; 3.44
COc1cc(C(=O)/C=C/c2c(C(F)(F)F)nc3sccn23)cc(OC)c1OC [Compound 7f]; 1.74

input: Tell me reported GI50 for COc1ccc(-c2nc3sccn3c2/C=C/C(=O)c2cc(OC)c(OC)c(OC)c2)cc1 [Compound 7a] , tested with SF-268.
output: 2.89

input: Report GI50 for COc1cc(C(=O)/C=C/c2c(-c3ccc(F)cc3)nc3sc(C)cn23)cc(OC)c1OC [Compound 19e] tested on SF-268.
output: 15.2

----------
HCT-15: recorded GI50 for assorted compounds
Report only the number, with the unit nM understood.

Solved entries (count: 2):
COc1ccc(-c2nc3sccn3c2/C=C/C(=O)c2cc(OC)c(OC)c(OC)c2)cc1; 3450
COc1cc(C(=O)/C=C/c2c(-c3ccc(F)cc3)nc3sc(C)cn23)cc(OC)c1OC [Compound 19e]; 3760

input: Recall the recorded GI50 for COc1cc(C(=O)/C=C/c2c(-c3ccc(F)cc3)nc3sccn23)cc(OC)c1OC with HCT-15 and state it.
output: 2940

input: # value lookup — system HCT-15, readout GI50, item COc1cc(C(=O)/C=C/c2c(C(F)(F)F)nc3sccn23)cc(OC)c1OC
output: 1800

input: Record COc1ccc(C(=O)/C=C/c2c(C(F)(F)F)nc3sccn23)cc1OC : what is its GI50 with HCT-15?
output: 2540

----------
- Test system: HS 578T
Observable: GI50 (nM)
Return type: number; implicit unit nM.

COc1ccc(C(=O)/C=C/c2c(C(F)(F)F)nc3sccn23)cc1OC; 2510
COc1cc(C(=O)/C=C/c2c(-c3ccc(F)cc3)nc3sc(C)cn23)cc(OC)c1OC [Compound 19e]; 8290
COc1ccc(-c2nc3sccn3c2/C=C/C(=O)c2cc(OC)c(OC)c(OC)c2)cc1; 1900

Attention now turns to another entry.
input: Entry COc1cc(C(=O)/C=C/c2c(-c3ccc(F)cc3)nc3sccn23)cc(OC)c1OC : reported GI50 = ?
output: 2050

----------
- Tested on: SF-295
# Met = GI50 below 3000 nM (exclusive); Not met = GI50 at/above 3000 nM

# count of solved cases: 4
COc1cc(C(=O)/C=C/c2c(C(F)(F)F)nc3sccn23)cc(OC)c1OC; Met
COc1cc(C(=O)/C=C/c2c(-c3ccc(F)cc3)nc3sc(C)cn23)cc(OC)c1OC [Compound 19e]; Met
COc1cc(C(=O)/C=C/c2c(-c3ccc(F)cc3)nc3sccn23)cc(OC)c1OC; Met
COc1ccc(-c2nc3sccn3c2/C=C/C(=O)c2cc(OC)c(OC)c(OC)c2)cc1; Met

# ---- query compound ----
input: Determine whether this compound shows GI50 lower than 3000 nM (ties excluded): COc1ccc(C(=O)/C=C/c2c(C(F)(F)F)nc3sccn23)cc1OC
output: Not met

----------
- Tested on: Leukemia cell lines
- Protocol: NCI in vitro cytotoxicity, whole panel
- Type: cell-based
- Study conditions: Homo sapiens; Leukemia; average of six to eight cell lines; read-out: Log10 LC50 (converted)
Observable: CC50

input: Item under review: COc1ccc(-c2nc3sccn3c2/C=C/C(=O)c2cc(OC)c(OC)c(OC)c2)cc1 [Compound 7a] . Reported CC50?
output: ≥ 100 µM
